# tested_system: T1, Rhesus D antigen (human, UniProt Q02161 2-417)
# T1 construct: whole, on cells; Presented on RhD-positive erythrocytes in all assays; also called RhD; RhD antigen
# T1 sequence (looked up): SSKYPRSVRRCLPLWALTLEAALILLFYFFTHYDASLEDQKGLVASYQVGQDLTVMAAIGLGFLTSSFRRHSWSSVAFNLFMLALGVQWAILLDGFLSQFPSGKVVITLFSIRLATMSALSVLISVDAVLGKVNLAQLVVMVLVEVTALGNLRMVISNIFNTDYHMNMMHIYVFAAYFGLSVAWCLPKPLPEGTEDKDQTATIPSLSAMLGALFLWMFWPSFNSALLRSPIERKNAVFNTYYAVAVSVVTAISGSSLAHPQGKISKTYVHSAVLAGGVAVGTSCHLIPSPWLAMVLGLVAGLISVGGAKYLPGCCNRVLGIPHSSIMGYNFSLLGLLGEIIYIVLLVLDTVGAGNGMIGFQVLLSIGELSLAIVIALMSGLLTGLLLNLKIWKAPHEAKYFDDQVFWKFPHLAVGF
# protocol_notes: Fab screening on red blood cells (agglutination/FACS)
observation_type: binding result

{"binder": "RhD321.187G08 (Fab, V domains shown, Tested as Fab (periplasmic extract)) VH: EVQLVESGGGLVKPGGSLRLSCAASGFTFRSYSMNWVRQAPGKGLEWVSSIGSSSIYTYSADSVKGRFTISRDNAKNSLYLQMNSLRAEDTAVYYCARGEPLNYDYIWGRSRLTIHWGQGTLVTVSS VL: LNFMLTQPHSVSESPGKTVTISCTRSSGSIASNYMQWYQQRPGSSPTTVIYEDNRRPSGVPDRFSGSIDSSSNSASLTISGLKTEDEADYYCQSYDSNNWVFGGGTKLTVLG", "observation_type": "binding result", "assay_result": "binds"}

The origin of these recorded values is patent US20110217317A1.
